Source listed as PubChem BioAssay (NCI).

test system: CAKI-1 renal; assay: NCI tumour cell line growth inhibition, 48 h; in the data active = GI50 below about 0.43 µM; inactive = the rest
Valid outcomes are listed here; reply with one: active, inactive

Query block: How was `NC(=O)c1cnc(N[C@@H]2CCCC[C@@H]2N)nc1Nc1cccc(-n2nccn2)c1` classified in this test?
Result block: inactive

Query block: How was `CC1=C(/C=C/C(C)=C\C=C\C(C)=C\C(=O)Nc2ccc3c(c2)OCO3)C(C)(C)CCC1` classified in this test?
Result block: inactive

Query block: How was CC[C@]1(O)CC2CN(CCc3c([nH]c4ccccc34)[C@@](C(=O)OC)(c3cc4c(cc3OC)N(C)[C@H]3[C@@](O)(C(=O)OC)[C@H](OC(C)=O)[C@]5(CC)C=CCN6CC[C@]43[C@@H]65)C2)C1 (stereo partly specified) classified in this test?
Result block: active

Query block: How was `Oc1ccc(Cc2ccc(O)c3ncccc23)c2cccnc12` classified in this test?
Result block: active

Query block: How was `C1CC[N-]CC1.C1CC[N-]CC1.C1CC[N-]CC1.C1CC[N-]CC1.[Cl][Rh][Cl]` classified in this test?
Result block: inactive

Query block: How was `C[C@@H]1C=C(CCCCCCCCCCC[C@H](O)[C@@H]2CCC(=O)O2)C(=O)O1` classified in this test?
Result block: inactive

Query block: How was `CCN(CC)c1ccc(/C=C\c2cc(C)c3cc(C)ccc3n2)cc1` classified in this test?
Result block: inactive

Query block: How was `c1ccc(Cc2nc3ccc(Nc4ncnc5ccccc45)cc3[nH]2)cc1` classified in this test?
Result block: inactive

Query block: How was `C=C1C(=O)O[C@H]2[C@H]1CC/C(COC(=O)/C=C/C(=O)OC/C1=C/CC[C@@]3(C)O[C@H]3[C@H]3OC(=O)C(=C)[C@@H]3CC1)=C\CC[C@@]1(C)O[C@@H]21` classified in this test?
Result block: inactive

Query block: How was CC(C)(C)N1CCC1C(N)=O (stereo unspecified) classified in this test?
Result block: inactive

Query block: How was CSc1nc2c(c(=O)[nH]1)N=C1c3ccccc3C(=O)C1C(c1ccc(F)cc1)N2 (stereo unspecified) classified in this test?
Result block: inactive

----------
test system: A498 renal; experiment: NCI tumour cell line growth inhibition, 48 h; in the data active = GI50 below about 0.43 µM; inactive = the rest
Valid outcomes are listed here; reply with one: true = active, false = inactive

Query block: How was CC12CCC3C(CC=C4CC(O)CCC43C)C1C/C(=C\N1CCCC1)C2=O (stereo not given) classified in this test?
Result block: false

Query block: How was `NC(=O)c1cnc(N[C@@H]2CCCC[C@@H]2N)nc1Nc1cccc(-n2nccn2)c1` classified in this test?
Result block: false

Query block: How was `CCCCn1c2cc(OCc3cn(-c4ccc(Cl)cc4)nn3)ccc2c2ccnc(C)c21` classified in this test?
Result block: false

Query block: How was `C1CC[N-]CC1.C1CC[N-]CC1.C1CC[N-]CC1.C1CC[N-]CC1.[Cl][Rh][Cl]` classified in this test?
Result block: false

Query block: How was Cc1ccc(C(CN(C)C)C(=O)c2ccccc2)cc1 (stereo not given) classified in this test?
Result block: false

Query block: How was CC1=C([Se]CC(OC(=O)CC[Se]c2ccccc2)C(=O)NCCCCCC(=O)OCc2ccccc2)C(=O)c2ccccc2C1=O (stereo not given) classified in this test?
Result block: false

Query block: How was `O=C1c2cccc3cc([N+](=O)[O-])cc(c23)C(=O)N1CCNCCNCCNCCN1C(=O)c2cccc3cc([N+](=O)[O-])cc(c23)C1=O` classified in this test?
Result block: true

Query block: How was `OCc1cn(Cc2cccc(Cl)c2)c2ccccc12` classified in this test?
Result block: true

Query block: How was `O=c1cccc(C#CC#C[C@H]2O[C@@H]2CO)o1` classified in this test?
Result block: false

Query block: How was `CCN(CC)c1ccc(/C=C\c2cc(C)c3cc(C)ccc3n2)cc1` classified in this test?
Result block: false
